# Test system: MDA-MB-231 breast
# assay_info: NCI tumour cell line growth inhibition, 48 h
Measured TGI by item
measurement_kind: TGI

molecule | result
O=c1oc2cc(O)ccc2c(O)c1C(c1ccc(/C=C/c2ccccc2)cc1)c1c(O)c2ccc(O)cc2oc1=O | > 100 µM
O=c1[nH]nc(Nc2ccc(Cl)cc2)c2nnn(-c3ccc([N+](=O)[O-])cc3)c12 | > 100 µM
CC(=O)O[C@H]1CC[C@@]2(C)C(=CC[C@@H]3[C@@H]2CC[C@]2(C)C(=O)/C(=C\c4ccccc4)C[C@@H]32)C1 | > 100 µM
CC(=O)OCC1OC(NC(=S)Nn2c(-c3ccccc3)nc3ccccc3c2=O)C(OC(C)=O)C(OC(C)=O)C1OC(C)=O (stereo unspecified) | > 100 µM
N=C(N)c1ccc(-c2ccc(-c3cccs3)s2)cc1F | 2.93 µM
CC[C@@]12CC(C(=O)OC)=C3Nc4ccccc4[C@@]34CCN(C[C@H]3O[C@H]31)[C@@H]24 | > 100 µM
